- Test system: NCI/ADR-RES ovarian
- measurement-protocol: NCI tumour cell line growth inhibition, 48 h
Where a SMILES comes first, the peptide text is derived from it. The star is where a group is joined. ONb = O=[N+]([O-])c1ccc(CO*)cc1; Boc = CC(C)(C)OC(=O)*
Attribute: TGI

Check out these entries, answers already filled in.
Data request, read-out TGI, for c1ccc2c(c1)ncn2C1CCCCO1 (centres undefined)
> 100 µM

Data request, read-out TGI, for "Oc1[nH]c2ccc(Cl)cc2c1/C=c1/ccc2c(c1)N=C(c1ccc(F)cc1)N=2"
3.58 µM

Data request, read-out TGI, for COC(=O)/C=C/c1ccc2c(c1)CC1(C2)Cc2cc3c(cc2C1=O)CCC3 (centres undefined)
> 100 µM

Data request, read-out TGI, for CC(C)CC(NC(=O)OC(C)(C)C)C(=O)NC(CCC(=O)OCc1ccc([N+](=O)[O-])cc1)C(=O)OCc1ccc([N+](=O)[O-])cc1 (stereo not drawn) (Boc-Leu-Glu(ONb)-ONb; configuration not given here)
> 100 µM

Data request, read-out TGI, for "Cc1cc(NC[C@H](O)[C@H](O)[C@H](O)CO)c(Sc2cc(=O)[nH]c(=O)[nH]2)cc1C"
> 62.5 µM

// moving on: another record for TGI
Data request, read-out TGI, for "COc1cc(C2=C(C#Cc3ccccc3)COC2=O)cc(OC)c1OC"
22.2 µM
